EXPERIMENTAL_READOUT: melting point

- CC(C)(C)c1cc(CCc2ccccc2NC(=O)NCCCc2cccs2)cc(C(C)(C)C)c1O: 150 °C
- CC(C)(C)OC(=O)N[C@@H](Cc1ccc(O)cc1)C(=O)NCCCN1CCN(CCCNc2cccc3c2C(=O)c2ccccc2C3=O)CC1: 102 °C
- CCOCc1nc2c(N)nc3c(c2n1NCCCNC(C)=O)CCCC3: 198 to 200 °C
- Cc1nn(-c2cc(OC(C)C)c(Cl)cc2F)c(C)c1N: 94 to 96.5 °C
- COc1ccc(/C=C/c2ccncc2)cc1O: 196 to 199 °C
- CCCCCCCCCCC#Cc1csc(CC(CO)NC(C)=O)c1 (stereo not drawn): 55 to 58 °C
- O=C(CCCN1CCCC(c2cccc(O)c2)C1)c1ccc(F)cc1 (stereo not drawn): 77 to 78 °C
- O=C(C=Cc1cccc(S(=O)(=O)Nc2ccc3ccccc3c2)c1)NO: 164 °C

====

EXPERIMENTAL_READOUT: melting point

• Cc1c(F)cc2[nH]c(=O)c(=O)[nH]c2c1[N+](=O)[O-] = 308 to 311 °C
• CC1(C)Oc2ccc(OCc3ccccc3)cc2C(O)C1Br (centres undefined) = 126 to 128 °C
• Oc1cccc(N(c2ccccc2)c2ccc(-c3ccc(N(c4ccccc4)c4cccc(O)c4)cc3)cc2)c1 = 113 to 117 °C
• CCCSC(C)c1c(-c2ccc(S(C)(=O)=O)cc2)cnn(-c2ccc(F)cc2)c1=O (centres undefined) = 45 to 60 °C
• Nc1ccc(OCc2ccccc2)c(CCCc2ccc(NC(=O)Cc3cccnc3)cc2)c1 = 110 to 112 °C
• CS(=O)(=O)c1cccc(Cc2cc3c(F)ccc(-c4cccc(C(=O)NCC(N)=O)c4)c3s2)c1 = 107 to 108 °C
• CC(=O)NCCNc1nc(Nc2ccc3[nH]nnc3c2)ncc1C(F)(F)F = > 300 °C
• CC1(C)Oc2cc(N)c(C#N)cc2[C@@H](N2CCCC2)[C@@H]1O (relative stereo) = 158 to 160 °C
• CN(Cc1ccc(S(C)=O)cc1)S(=O)(=O)c1cn(S(=O)(=O)N(C)C)c(C#N)n1 (centres undefined) = 126 °C
• CN(CCCCCCCNC(=NCCCOc1cccc(CN2CCCCC2)c1)NC#N)CCN(Cc1ccc(F)cc1)c1ccccn1 = 96 to 98 °C
• O=C1CCCc2cc(Sc3cccc(F)c3)cc(F)c21 = 126 to 127 °C
• CC[C@@H](COC)n1cc(Cl)nc(N2CCc3cc(Br)cc(Cl)c32)c1=O = 121 to 122 °C
• Cc1cccc(N=C2NCCN2C(=O)Nc2ccc(F)cc2)c1 = 178 °C
• CC(C)(C)NCC(O)COc1ccc(OCC2CC2)cc1 (centres undefined) = 90 to 92 °C

====

Here, each record is paired with measured melting point data.
EXPERIMENTAL_READOUT: melting point

* O=C(O)[C@H](Cc1ccc(C(F)(F)F)cc1)[C@@H](O)c1ccc(Oc2ccccc2)cc1 (racemic) | 128 to 129 °C
* CCc1cccc(CC(=O)O)c1OCCn1cc(C(=O)NCc2ccc(Cl)cc2Cl)c(OC(C)C)n1 | 125 to 126 °C
* COc1ccc(C2=NN(c3cc(C)c4c(C)nn(C)c4n3)C(=O)[C@H]3CC=CC[C@@H]23)cc1Cl (relative stereo) | 217 to 219 °C
* NCCC1CCC(C(O)(P(=O)(O)O)P(=O)(O)O)CC1 (centres undefined) | 226 to 230 °C

====

Known melting point of a selection of compounds
EXPERIMENTAL_READOUT: melting point

- CCCCc1nc2cccc(C(=O)OC)c2n1Cc1ccc(-n2cccc2-c2nnn[nH]2)cc1: 186 to 187 °C
- C#CCOCC(C)(COCC#C)NC(=O)C(Oc1ccc2ncc(C#C)cc2c1)SC (configuration not stated): 95 to 100 °C
- CCOC(=O)Oc1ccc(S(=O)(=O)N2c3cc(Br)ccc3-n3cccc3[C@@H]2CC)cc1: 137 to 139 °C
- OC(c1ccc2c(c1)OCCN2)(C(F)(F)F)C(F)(F)F: 119 to 120 °C
- FC(F)(F)c1cccc(N2CCN(Cc3n[nH]c4ccccc34)CC2)c1: 78 to 80 °C
- CCOC(=O)c1cn2c(ccc3cc(OC)ccc32)n1: 119 to 121 °C
- c1ccc(Cn2cnc3ccc(NC4=NCCN4)cc32)cc1: 174 to 175 °C

====

Below: a set of entries, each annotated with reported melting point.
EXPERIMENTAL_READOUT: melting point

* O=C(O)CCCCCN1CCN2c3ccccc3Cc3ccccc3C2C1 (stereo not drawn) | 181 to 182 °C
* COc1cc(OC)c2c(=O)c(OCCOc3ccc(C(C)=C4SC(=O)NC4=O)cc3)c(-c3ccc(OC)c(OC)c3)oc2c1 | 205 to 206 °C
* CCCCN(O)C1CC(C)(C)N(C(C)=O)C(C)(C)C1 | 52 to 54 °C
* COc1cccc2cc(-c3ccc(OCCN4CCCC4)cc3)sc12 | 88 to 90 °C
* COc1ccc(C(=O)Nc2ccccc2)cc1NCc1ccc(O)cc1 | 188 to 190 °C
* ON=Cc1cn2c(cnc3ccccc32)n1 | 243 to 245 °C
* Cc1nc(-c2ccc(O)cc2)[nH]c1Br | 205 to 212 °C
* Cc1ccccc1C(=O)Nc1ccc(C(=O)N2Cc3ccccc3Cc3ccccc32)c(Cl)c1 | 138 to 150 °C
* O=C(Cc1cc2ccccc2[nH]1)Nc1ccc(-n2nc(C(F)(F)F)cc2C(F)(F)F)cc1 | 176 to 178 °C
* CNCC1(c2cccc(C(F)(F)F)c2)CCN(C(=O)CN2CCN(c3cnccn3)CC2)CC1 | 137 to 139 °C
* COc1ccccc1C(=O)OC1=C(c2nnc(-c3ccccc3OC)o2)N(C)S(=O)(=O)c2ccccc21 | 119 to 120 °C
* CN(CC(=O)OC(C)(C)C)c1nccc(-c2nc(=O)c3ccccc3s2)n1 | 186 to 188 °C
* NC(=O)CN(N=O)N1CCOCC1 | 134 to 136 °C
* O=C(Nc1cccc(NC(=O)c2ccc(O)cc2)c1)c1ccc(O)cc1 | 250 °C
* O=c1c2c(n(-c3ccccc3)c3ncccc13)OC(CBr)C2 (stereo not drawn) | 187 to 188 °C
* FC(F)(F)c1cc(Cl)c(-n2cc(I)c(-c3ccccc3)n2)c(Cl)c1 | 88 to 89 °C
* CC1CC(C)CN(S(=O)(=O)c2ccc(F)c(C(=O)O)c2)C1 (stereo not drawn) | 140 °C
* COc1ccc(C2(C#Cc3cccc(C(=O)O)c3)CCCC(=O)C2)cc1OC1CCCC1 (stereo not drawn) | 71 to 73 °C
* CCCCOCCOc1ccc(-c2ccc(N3CCC(C)CC3)c(C=CC(=O)O)c2)cc1 | 159 to 160 °C
* Cc1cc(F)ccc1C(=C(C=CC=O)c1nnnn1C)c1ccc(F)cc1C | 75 to 95 °C
* CCc1n[nH]c(=O)n1CCOc1ccccc1 | 136 to 139 °C
* C#CCOc1cc(C(=O)OC)cc(OC)c1OC | 72 to 73.5 °C
* NC(=O)c1nc(-c2cccc(N)c2)cs1 | 193 to 194 °C

====

compounds and their reported melting point
EXPERIMENTAL_READOUT: melting point

* Oc1ccc2nc(-c3ccc(O)c(F)c3)cc(-c3ccc(Cl)cc3)c2c1 | 140 to 147 °C
* COC(=O)c1[nH]cnc1CCNC(=O)[C@H](Cc1ccccc1)NC(=O)[C@H](Cc1ccccc1)NC(=O)OC(C)(C)C | 155 to 159 °C
* Cc1c(C)c2c(c(C)c1N)CC(C)(CN1CCC(OCC=Cc3ccccc3)CC1)O2 (stereo unspecified) | 77 to 79 °C
* c1cc(CN2CCc3cccc(CCc4nnn[nH]4)c32)cc(OCc2ccc3ccccc3n2)c1 | 148 to 151 °C
* NCC1Cc2cc(F)cc(-c3cc(Cl)ccc3Cl)c2O1 (stereo unspecified) | 165 to 166 °C
* Brc1n[nH]c2ccccc12 | 136 °C

====

EXPERIMENTAL_READOUT: melting point

- O=C(Nc1cc(Cl)c(N2CCNCC2)c(Cl)c1)c1ccc(F)c(OCc2cccnc2)c1: 81 to 85 °C
- COc1cc(CBr)ccc1[N+](=O)[O-]: 98 °C
- CCOC(=O)Cc1cc(C)c(C(=O)c2ccc([N+](=O)[O-])cc2)n1C: 148 to 149 °C
- CCOC(=O)CSC(=S)N1Cc2[nH]c3ccccc3c2CC1C(=O)O (centres undefined): 190 to 192 °C

====

Entries and their measured melting point follow.
EXPERIMENTAL_READOUT: melting point

- O=C(O)c1nc2n(n1)-c1cc(Cl)ccc1N(c1ccc(Cl)cc1Cl)C2: 218 to 222 °C
- Cn1cncc1C(O)(c1cccc(I)c1)c1ccc2c(c1)c(-c1cccc(Cl)c1)cc(=O)n2C (stereo not drawn): 226 °C
- CC#CCOc1ccc(S(=O)(=O)N[C@@H](C(=O)NO)C2CCC(O)CC2)cc1 (stereo partly drawn): 180 to 182 °C
